All figures here come from patent US20240174691A1.

Here, each record is paired with measured pIC50 data.
System: AsPC-1 cells (KRAS G12D)
ASSAY_SUMMARY: Cell proliferation inhibition assay, 3D cell model (CellTiter-Glo 3D), AsPC-1
Type: cell-based, human
SETUP_CONDITIONS: Homo sapiens, ASPC1, 120 h, AsPC-1 3D sphere plate, 5 days incubation
// pIC50: -log10(molar conc.)

Record excerpt, results attached:
C#Cc1c(F)ccc2cc(O)cc(-c3nc4c5c(nc(OC[C@@]67CCCN6C[C@H](F)C7)nc5c3F)N3C[C@H]5CC[C@H](N5)[C@H]3CO4)c12 7.48
C#Cc1cccc2cccc(-c3nc4c5c(nc(OC[C@@]67CCCN6C[C@H](F)C7)nc5c3F)N3C[C@H]5CC[C@H](N5)[C@H]3CO4)c12 6.69

# pIC50 of CCc1cccc2cc(O)cc(-c3cc4nc(OC[C@@]56CCCN5C[C@H](F)C6)nc5c4c(n3)OC[C@@H]3[C@@H]4CC[C@H](CN53)N4)c12 = 6.90

---

Test system: p-ERK in AGS cells containing the KRAS G12D mutation
ASSAY_SUMMARY: Cell p-ERK assay (HTRF, Advance ERK phospho-T202/Y204 kit)
Assay type: cell-based, human
SETUP_CONDITIONS: 3 hours incubation with compound
REPORTED_METRIC: IC50 (nM)
Give just the number in nM; leave the unit off.

IC50 for CCc1cccc2cc(O)cc(-c3nc4c5c(nc(OC[C@@]67CCCN6C[C@H](F)C7)nc5c3F)N3C[C@H]5CC[C@H](N5)[C@H]3CO4)c12 [Z140-1] is 2.85

---

Test system: AGS cells (KRAS G12D)
ASSAY_SUMMARY: Cell proliferation inhibition assay, 3D cell model (CellTiter-Glo 3D), AGS
Type: cell-based, human
SETUP_CONDITIONS: Homo sapiens, 120 h, AGS 3D sphere plate, 5 days incubation
Measured pIC50 of individual entries
To interpret pIC50, take it as minus log10 of a concentration measured in moles per litre.

MOLECULE	pIC50
C#Cc1cccc2cccc(-c3nc4c5c(nc(OC[C@@]67CCCN6C[C@H](F)C7)nc5c3F)N3C[C@H]5CC[C@H](N5)[C@H]3CO4)c12 [Z350]	6.74
C#Cc1c(F)ccc2cc(O)cc(-c3nc4c5c(nc(OC[C@@]67CCCN6C[C@H](F)C7)nc5c3F)N3C[C@H]5CC[C@H](N5)[C@H]3CO4)c12 [Z131-1]	8.60

Looking up CCc1cccc2cc(O)cc(-c3cc4nc(OC[C@@]56CCCN5C[C@H](F)C6)nc5c4c(n3)OC[C@@H]3[C@@H]4CC[C@H](CN53)N4)c12 [Z2] , I found its pIC50 recorded as 7.99

---

System: p-ERK in AGS cells containing the KRAS G12D mutation
ASSAY_SUMMARY: Cell p-ERK assay (HTRF, Advance ERK phospho-T202/Y204 kit)
Format: cell-based, human
SETUP_CONDITIONS: Homo sapiens, 3 hours incubation with compound
Measured IC50 by item
Please respond with the number in nM and leave the unit unwritten.

CCc1cccc2cc(O)cc(-c3cc4nc(OC[C@@]56CCCN5C[C@H](F)C6)nc5c4c(n3)OC[C@@H]3[C@@H]4CC[C@H](CN53)N4)c12 on p-ERK in AGS cells containing the KRAS G12D mutation gives IC50 = 10.7

C#Cc1c(F)ccc2cc(O)cc(-c3nc4c5c(nc(OC[C@@]67CCCN6C[C@H](F)C7)nc5c3F)N3C[C@H]5CC[C@H](N5)[C@H]3CO4)c12 on p-ERK in AGS cells containing the KRAS G12D mutation gives IC50 = 1.58

The value of IC50 recorded for CCc1cccc2cc(O)cc(-c3cc4nc(OC[C@@]56CCCN5C[C@H](F)C6)nc5c4c(c3Cl)OC[C@@H]3[C@@H]4CC[C@H](CN53)N4)c12 when tested on p-ERK in AGS cells containing the KRAS G12D mutation reads 436

# value of IC50, p-ERK in AGS cells containing the KRAS G12D mutation, item C#Cc1cccc2cccc(-c3nc4c5c(nc(OC[C@@]67CCCN6C[C@H](F)C7)nc5c3F)N3C[C@H]5CC[C@H](N5)[C@H]3CO4)c12 = 47
